Recorded below: pIC50, system ErbB-2 (Epidermal Growth Factor Receptor 2) (Homo sapiens, UniProt P04626).
pIC50: −log10 of the molar value.
readout-name: pIC50

compound: O=[N+]([O-])c1ccc(CCNCc2ccc(-c3ccc4ncnc(Nc5ccc(F)c(Cl)c5)c4c3)o2)cc1
result: > 5.00
--
compound: NC1CCCC(NCc2ccc(-c3ccc4ncnc(Nc5ccc(OCc6cccc(F)c6)c(Cl)c5)c4c3)o2)C1 (stereo not drawn)
result: > 5.00
--
compound: Fc1cccc(COc2ccc(Nc3ncnc4ccc(-c5ccc(CNOCc6ccccc6)o5)cc34)cc2Cl)c1
result: > 5.00
--
compound: OCCNCc1ccc(-c2ccc3ncnc(Nc4ccc(OCc5cccc(F)c5)c(Cl)c4)c3c2)o1 [MS27·dimethanesulfonate]
result: > 5.00
--
compound: CSCCC(NCc1ccc(-c2ccc3ncnc(Nc4ccc(OCc5cccc(F)c5)c(Cl)c4)c3c2)o1)C(=O)O (stereo not drawn)
result: > 5.00
--
compound: CCNCc1ccc(-c2ccc3ncnc(Nc4ccc(OCc5cccc(F)c5)c(Cl)c4)c3c2)o1
result: > 5.00
--
compound: COCCCCNCc1ccc(-c2ccc3ncnc(Nc4ccc(OCc5cccc(F)c5)c(Cl)c4)c3c2)o1 [MS10·dimethanesulfonate]
result: > 5.00
--
compound: COc1cc(CCNCc2ccc(-c3ccc4ncnc(Nc5ccc(OCc6cccc(F)c6)c(Cl)c5)c4c3)o2)cc(OC)c1
result: > 5.00
--
compound: CC=CCNCc1ccc(-c2ccc3ncnc(Nc4ccc(F)c(Cl)c4)c3c2)o1
result: > 5.00
--
compound: OCCCNCc1ccc(-c2ccc3ncnc(Nc4ccc(OCc5cccc(F)c5)c(Cl)c4)c3c2)o1 [MS42·di-p-toluenesulfonate]
result: > 5.00
--
compound: OCC(O)CNCc1ccc(-c2ccc3ncnc(Nc4ccc(OCc5cccc(F)c5)c(Cl)c4)c3c2)o1 (stereo not drawn) [MS31·dimethanesulfonate]
result: > 5.00
--
compound: O=[N+]([O-])c1ccc(CCNCc2ccc(-c3ccc4ncnc(Nc5ccc(OCc6cccc(F)c6)c(Cl)c5)c4c3)o2)cc1
result: > 5.00
--
compound: Oc1cc(F)cc(CCNCc2ccc(-c3ccc4ncnc(Nc5ccc(OCc6cccc(F)c6)c(Cl)c5)c4c3)o2)c1
result: > 5.00
--
compound: CCCNCc1ccc(-c2ccc3ncnc(Nc4ccc(F)c(Cl)c4)c3c2)o1
result: > 5.00
--
compound: O=C(O)CCC(NCc1ccc(-c2ccc3ncnc(Nc4ccc(OCc5cccc(F)c5)c(Cl)c4)c3c2)o1)C(=O)O (stereo not drawn)
result: > 5.00
